Biological target: Nuclear receptor subfamily 1 group D member 1 (Homo sapiens) (UniProt P20393)
Sequence (P20393 whole entry, looked up): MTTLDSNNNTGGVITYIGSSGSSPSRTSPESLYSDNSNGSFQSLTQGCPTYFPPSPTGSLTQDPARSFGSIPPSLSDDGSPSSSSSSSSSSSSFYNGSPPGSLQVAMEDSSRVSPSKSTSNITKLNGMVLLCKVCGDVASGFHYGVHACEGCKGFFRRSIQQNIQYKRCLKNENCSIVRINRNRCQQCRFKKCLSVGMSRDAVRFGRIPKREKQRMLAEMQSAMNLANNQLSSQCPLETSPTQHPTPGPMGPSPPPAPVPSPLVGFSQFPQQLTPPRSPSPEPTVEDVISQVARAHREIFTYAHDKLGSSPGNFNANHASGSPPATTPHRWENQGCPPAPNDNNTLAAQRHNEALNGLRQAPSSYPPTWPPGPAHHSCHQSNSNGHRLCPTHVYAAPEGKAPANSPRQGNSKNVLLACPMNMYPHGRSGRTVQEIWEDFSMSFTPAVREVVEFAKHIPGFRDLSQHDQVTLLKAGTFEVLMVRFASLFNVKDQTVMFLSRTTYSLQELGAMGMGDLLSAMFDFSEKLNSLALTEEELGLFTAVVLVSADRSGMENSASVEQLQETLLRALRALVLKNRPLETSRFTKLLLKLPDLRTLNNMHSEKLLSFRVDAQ
Test: modulators of Rev-erb alpha DNA binding, dose response, biochemical, FITC-DNA, fluorescence polarization (AID 1259321)
Activity calls are given as the source filed them.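 How the source made its calls: active means half-maximal concentration for changing protein binding to DNA, from the fitted dose curve, below 10 micromolar; inactive means the rest.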
Possible outcomes: active, inactive

compound: O=C(Nc1ccc(O)c(-c2nc3ccccc3s2)c1)c1cccs1
group label: active
//
compound: COc1ccccc1NC(=O)c1oc2ccccc2c1NC(=O)c1cc(OC)c(OC)c(OC)c1
group label: active
//
compound: COc1ccccc1-c1ccc2c(c1)C(C)(Cc1cccc(F)c1)C(=O)N2 (stereo not given)
group label: active
//
compound: O=C(CSc1nc2ccccc2nc1N1CCCCC1)N1CCN(S(=O)(=O)c2cc(Cl)ccc2Cl)CC1
group label: active
//
compound: C=CCn1c(SCCNC(C)=O)nc2cc(-c3ccccc3)sc2c1=O
group label: inactive

----------
Molecular target: Nuclear receptor subfamily 1 group D member 1 (Homo sapiens)
Assay: modulators of Rev-erb alpha DNA binding, dose response, biochemical, FITC-DNA, fluorescence polarization (AID 1259321)
Calls of active or inactive are those of the source.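 Rule for the calls: active = half-maximal concentration for changing protein binding to DNA, from the fitted dose curve, below 10 micromolar; inactive = the rest.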
Possible outcomes: active, inactive

molecule: Cc1c(C(=O)Nc2ccncc2)sc2nc(-c3ccc(F)cc3)cn12
group label: active
--
molecule: Cc1ccccc1C(=O)N=c1ccn(-c2nc3ccccc3nc2NS(=O)(=O)c2ccc(F)cc2)cc1
group label: active
--
molecule: CSc1nnc(N2C(=O)C(O)=C(C(=O)c3ccco3)C2c2cccc(Cl)c2)s1 (stereo unspecified)
group label: inactive
--
molecule: N#CCCN(CCC#N)S(=O)(=O)c1ccc(C(=O)Nc2nc(-c3ccccc3)c(C(=O)c3ccccc3)s2)cc1
group label: inactive
--
molecule: O=C1c2cccc3c(O)ccc(c23)C(=O)N1Cc1ccccc1
group label: inactive
--
molecule: N#CCNC(=O)c1nn2c(C(F)(F)F)cc(-c3ccccc3)nc2c1Br
group label: active
--
molecule: CC(=O)c1ccc(NC(=O)COC(=O)c2ccccc2Sc2ccccc2C#N)cc1
group label: inactive
--
molecule: Cc1sc2nc(SCC(=O)NCc3ccco3)n(CCc3ccccc3)c(=O)c2c1C
group label: inactive
--
molecule: COc1ccc(C(=O)NNC(=O)C(Cc2ccc(O)cc2)NC(=O)c2ccccc2NC(=O)c2ccc(OC)cc2)cc1 (stereo unspecified)
group label: inactive
--
molecule: COc1ccc(Cc2nc3ccccc3n2CC(=O)N/N=C/c2ccc(C)cc2O)cc1OC
group label: active
--
molecule: COc1ccc(C2=NN(C(=O)CSc3ncccn3)C(c3cccc(OC)c3OC)C2)cc1 (stereo unspecified)
group label: active
--
molecule: Cc1nc2cc(NC(=O)CSc3nc4c(C)cccc4cc3C#N)ccc2s1
group label: active
--
molecule: CCOC(=O)/C(C#N)=C/c1cc2ccccc2nc1N1CCCCC1
group label: inactive
--
molecule: CCN(CC)c1ccc(/C=C2\C(=O)NC(=S)N(C)C2=O)o1
group label: active
--
molecule: O=[N+]([O-])c1ccc2c(c1)Cc1cc(F)ccc1-2
group label: active
--
molecule: O=c1c2ccccc2[nH]c(=S)n1Cc1ccc2c(c1)OCO2
group label: active
--
molecule: N#Cc1c(N)nc2c3c(sc(=N)c2c1N)NC(=O)CC3c1c(F)cccc1Cl (stereo unspecified)
group label: active
--
molecule: CCN1C(=O)CSC1=NC1C2CC3CC(C2)CC1C3 (stereo unspecified)
group label: active
--
molecule: CC(OC(=O)c1cc2c(ccc3ccccc32)oc1=O)c1nc2ccccc2s1 (stereo unspecified)
group label: inactive
--
molecule: COc1ccc(S(=O)(=O)N2CCCCCC2)cc1C(=O)Nc1ccc(C)cn1
group label: inactive
--
molecule: N#Cc1c(N)nc(N2CCCC2)c(C#N)c1-c1ccc(Cl)cc1
group label: active

----------
Molecular target: Nuclear receptor subfamily 1 group D member 1 (Homo sapiens)
Test: modulators of Rev-erb alpha DNA binding, dose response, biochemical, FITC-DNA, fluorescence polarization (AID 1259321)
Activity calls are given as the source filed them.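 Rule for the calls: active = half-maximal concentration for changing protein binding to DNA, from the fitted dose curve, below 10 micromolar; inactive = the rest.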
Possible outcomes: active, inactive

compound: COc1ccccc1Oc1ccc2c(c1)C(=O)N(c1ccccc1)C2=O
group label: active
//
compound: Cc1ccc(Sc2cnc3ccccc3n2)cc1
group label: inactive
//
compound: O=C(Nc1cccc(C(F)(F)F)c1)c1cc(Br)cc2c1OCC2
group label: inactive
//
compound: CCOc1ccc(NC(=O)CNC(=O)c2nn(-c3ccc(OC)c(OC)c3)c(=O)c3ccccc23)cc1
group label: active
//
compound: CN1C(=O)N(C)c2ccc(Br)c3cccc1c23
group label: inactive
//
compound: CN(C)c1ccc(/C=C2\NC(=S)N(Cc3ccccc3)C2=O)cc1
group label: inactive
//
compound: COc1ccc2c(C)cc(SCC(=O)NC3CCCCC3)nc2c1
group label: inactive
//
compound: CCN(CC)c1ccc(-c2c(C#N)c(N)nc(OC)c2C#N)cc1
group label: inactive
//
compound: Fc1cccc2sc(Nc3nc4cc5c(cc4s3)OCCO5)nc12
group label: inactive
//
compound: CC(C)(C)c1ccc(C(=O)c2c[nH]c(C(=O)NCc3cccs3)c2)cc1
group label: active
//
compound: COc1ccc(NC(=O)CSc2nc(N)c(C#N)cc2C#N)cc1
group label: active
//
compound: Cc1cc(C)c(NC(=O)CSc2nc(COc3ccccc3)nc3ccccc23)c(C)c1
group label: active
//
compound: O=C(CSc1ncnc2c1oc1ccccc12)Nc1ccc2c(c1)OCCO2
group label: inactive
//
compound: O=C(Nc1ccc(O)c(-c2nc3ccccc3s2)c1)C1=COCCO1
group label: inactive
//
compound: COc1cc(-c2ccc3c(=O)c4ccccc4sc3c2)cc(OC)c1OC
group label: active
//
compound: O=C(OCC(=O)N1CCN(S(=O)(=O)c2ccc(Cl)cc2)CC1)c1cc(Br)ccc1O
group label: active
//
compound: CC1=NN(c2ccccc2)C(=O)/C1=C\C=C1\N(C)c2ccccc2C1(C)C
group label: inactive
//
compound: Cc1cc(C)c(NC(=O)CSc2nc3ncc(Br)cc3[nH]2)c(Cl)c1
group label: active
//
compound: Cc1ccc2nc(/C(C#N)=C/c3ccc(-c4ccccc4C(=O)O)o3)[nH]c2c1
group label: inactive
//
compound: Cc1ccc(CNC(=O)c2cc3c(=O)n(C)c4ccccc4c3n2C)cc1
group label: inactive
//
compound: Cc1ccc(N(Cc2cc3cc(C)ccc3[nH]c2=O)C(=O)c2cccs2)cc1
group label: active
//
compound: COc1cc(/C=C2\SC(=O)N(CCNC(=O)c3sc4cc(F)ccc4c3Cl)C2=O)cc(OC)c1OC
group label: active
//
compound: CSc1ccc(SC2CN(Cc3ccc(C)cc3)S(=O)(=O)C2)cc1 (configuration not stated)
group label: inactive
//
compound: Cn1c(=O)c2c(nc(SCC(=O)c3cccs3)n2Cc2ccc(F)cc2)n(C)c1=O
group label: inactive
//
compound: C/C=C(/C(=C/C)c1ccc(O)cc1)c1ccc(O)cc1
group label: inactive
//
compound: O=C(Nc1nc(-c2ccccc2)c(C(=O)c2ccccc2)s1)c1ccc(S(=O)(=O)N2CCCCC2)cc1
group label: active
//
compound: COc1cccc(-c2nc(CS(=O)(=O)CC(=O)NCCCc3ccccc3)c(C)o2)c1
group label: active
//
compound: COc1ccccc1NC(=O)c1sc2ncn(Cc3cccc(C)c3)c(=O)c2c1C
group label: active
//
compound: O=C(COc1ncnc2c(Cl)cc(Cl)cc12)NC1CCCCCC1
group label: active
//
compound: COc1ccc(-n2nc(C(=O)NCC(=O)Nc3cccc(Cl)c3)c3ccccc3c2=O)cc1
group label: inactive
//
compound: COc1ccc(-n2nc3c(N4CCC(C(=O)NCc5ccccc5)CC4)nnc(C)c3c2C)cc1
group label: inactive
//
compound: O=[N+]([O-])c1ccc(O)c(-c2cc(C(F)(F)F)nc(-c3ccccc3)n2)c1
group label: inactive
//
compound: CCN1C(=O)CSC1=NC12CC3CC(CC(C3)C1)C2
group label: inactive
//
compound: CCN(CC(=O)NCc1ccc(Cl)cc1)C(=O)c1ccc2cc(OC)ccc2c1
group label: active
//
compound: CC(C)(C)C(=O)Nc1cc(S(=O)(=O)N2CCCCC2)ccc1N1CCCCC1
group label: inactive
//
compound: COC(=O)c1sc2nc3c(cc2c1N)C(=O)CC(C)(C)C3
group label: inactive
//
compound: CC(=O)c1sc(NC(=O)c2oc3ccc(F)cc3c2C)nc1C
group label: active
//
compound: CCN1/C(=C/c2ccc3cc(C)cc(C)c3[n+]2CC)Sc2cc(C)ccc21
group label: inactive
//
compound: CNC(=O)COc1ccccc1C(=O)Nc1ccc2c(c1)oc1ccccc12
group label: inactive
//
compound: CCc1ccc(NC(=O)CSc2nnc(-c3n[nH]c4ccccc34)n2-c2ccccc2)cc1
group label: active
//
compound: COc1cccc(C(=O)n2ccc3ccc(-c4ccc5ccn(Cc6ccccc6)c5c4)cc32)c1
group label: active
//
compound: CCN(Cc1nc2cc(Cl)ccc2c(=O)[nH]1)C(=O)c1cc2c(s1)CCCCC2
group label: active
